Where do these numbers come from? They come from the supplement of paper PMC10567573.

Overview of recorded protein stability index for various variants
B1: ADAMTS4 (parent)
chain: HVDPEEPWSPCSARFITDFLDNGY

# Variants of: B1
# EXPERIMENT: protein stability index of a GFP-peptide fusion (GPS, HEK-293T) (PSI 1-6); higher = more stable;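 also: lentivirally expressed fusions sorted by FACS into six bins by GFP to DsRed ratio, PSI derived from sequencing read proportions per bin multiplied by bin number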
# TEST CONTEXT: c terminus: a fixed tail appended

HVDPWEPWSPCSARFITDFLDNGY [E5W] :: 2.79

Exercise: Which measured protein stability index value corresponds to HVDYEEPWSPCSARFITDFLDNGY [P4Y] ?
Solution: 1.98
